- experimental details: Preliminary solubility assessment in solvents
- Type: physicochemical
- condition summary: dichloromethane, organic solvent or mixture, thermodynamic from solid, Dichloromethane, 10 vol, RT; read-out: Solubility assessment 10 vol
measured metric: solubility

[
  {
    "compound": "O=C(O)c1cccc(C#Cc2ccc(COC3CCOCC3)cc2)c1-c1ccc2cc[nH]c2c1 [Amorphous (I) free acid]",
    "measured metric": "solubility",
    "result value": "> 100 mg/mL"
  }
]

* * *

- experimental details: Preliminary solubility assessment in solvents
- Type: physicochemical
- condition summary: 1,4-dioxane, organic solvent or mixture, thermodynamic from solid, 1,4-Dioxane, 10 vol, RT; read-out: Solubility assessment 10 vol
measured metric: solubility

[
  {
    "compound": "O=C(O)c1cccc(C#Cc2ccc(COC3CCOCC3)cc2)c1-c1ccc2cc[nH]c2c1 [Amorphous (I) free acid]",
    "result value": "> 100 mg/mL"
  }
]
